Please go through the items and note down their bioavailability.
Experiment: In vivo pharmacokinetics of rat, single intravenous injection or oral administration by gavage
Parameters: species or system Male Sprague Dawley rats
Conditions: male, Sprague-Dawley, plasma, po, intragastric (gavage) 10 mg/kg vs intravenous 1 mg/kg
// return numeric value only (unit: %, not printed)

Recorded bioavailability of O=C(Nc1ccc[n+]([O-])c1)c1c(Oc2ccc(OC(F)(F)F)cc2)cc(C(F)(F)F)c(Cl)c1F [Embodiment A68] , please. 41.8

Which bioavailability value belongs to O=C(Nc1ccc[n+]([O-])c1)c1cc(Cl)c(Cl)cc1Oc1ccc(OC(F)(F)F)cc1 [Embodiment A11] ? 72.6

What does the record list as bioavailability for O=C(Nc1ccc[n+]([O-])c1)c1cc(Cl)c(C(F)(F)F)cc1Oc1ccc(OC(F)(F)F)cc1 [Embodiment A69] ? 70.4

----------
Assay: In vivo pharmacokinetics of rat, single intravenous injection or oral administration by gavage
Parameters: species or system Male Sprague Dawley rats
Conditions: male, Sprague-Dawley, plasma, po, intragastric (gavage) 10 mg/kg
Answer each item with its documented Cmax.

// lookup Cmax for O=C(Nc1ccc[n+]([O-])c1)c1cc(Cl)c(Cl)cc1Oc1ccc(OC(F)(F)F)cc1 [Embodiment A11] 1330 ng/mL

Which Cmax reading was recorded for the compound O=C(Nc1cc[n+]([O-])nc1)c1c(Oc2ccc(OC(F)(F)F)c(F)c2)ccc(C(F)(F)F)c1F [Embodiment A56] ? 3000 ng/mL

Need Cmax of O=C(Nc1ccc[n+]([O-])c1)c1c(Oc2ccc(OC(F)(F)F)c(F)c2)cc(C(F)(F)F)c(Cl)c1F [Embodiment A84] , thanks. 4920 ng/mL

Quick one: Cmax for O=C(Nc1ccc[n+]([O-])c1)c1cc(Cl)c(C(F)(F)F)cc1Oc1ccc(OC(F)(F)F)cc1 [Embodiment A69] ? 17100 ng/mL

Requested field: Cmax. Item: O=C(Nc1cc[n+](O)nc1)c1c(Oc2ccc(OC(F)(F)F)cc2)ccc(C(F)(F)F)c1F [Embodiment A46] 2060 ng/mL

Find the recorded Cmax belonging to O=C(Nc1ccc[n+]([O-])c1)c1c(Oc2ccc(OC(F)(F)F)cc2)cc(C(F)(F)F)c(Cl)c1F [Embodiment A68] and report it. 9700 ng/mL

Item Cc1cc(F)ccc1Oc1cc(C(F)(F)F)c(Cl)cc1C(=O)Nc1ccc[n+]([O-])c1 [Embodiment A103] has what recorded Cmax? 1710 ng/mL

----------
Molecular target: NaV1.8 (Homo sapiens)
Construct: expressed in transfected cells
Sequence (Q9Y5Y9 whole entry): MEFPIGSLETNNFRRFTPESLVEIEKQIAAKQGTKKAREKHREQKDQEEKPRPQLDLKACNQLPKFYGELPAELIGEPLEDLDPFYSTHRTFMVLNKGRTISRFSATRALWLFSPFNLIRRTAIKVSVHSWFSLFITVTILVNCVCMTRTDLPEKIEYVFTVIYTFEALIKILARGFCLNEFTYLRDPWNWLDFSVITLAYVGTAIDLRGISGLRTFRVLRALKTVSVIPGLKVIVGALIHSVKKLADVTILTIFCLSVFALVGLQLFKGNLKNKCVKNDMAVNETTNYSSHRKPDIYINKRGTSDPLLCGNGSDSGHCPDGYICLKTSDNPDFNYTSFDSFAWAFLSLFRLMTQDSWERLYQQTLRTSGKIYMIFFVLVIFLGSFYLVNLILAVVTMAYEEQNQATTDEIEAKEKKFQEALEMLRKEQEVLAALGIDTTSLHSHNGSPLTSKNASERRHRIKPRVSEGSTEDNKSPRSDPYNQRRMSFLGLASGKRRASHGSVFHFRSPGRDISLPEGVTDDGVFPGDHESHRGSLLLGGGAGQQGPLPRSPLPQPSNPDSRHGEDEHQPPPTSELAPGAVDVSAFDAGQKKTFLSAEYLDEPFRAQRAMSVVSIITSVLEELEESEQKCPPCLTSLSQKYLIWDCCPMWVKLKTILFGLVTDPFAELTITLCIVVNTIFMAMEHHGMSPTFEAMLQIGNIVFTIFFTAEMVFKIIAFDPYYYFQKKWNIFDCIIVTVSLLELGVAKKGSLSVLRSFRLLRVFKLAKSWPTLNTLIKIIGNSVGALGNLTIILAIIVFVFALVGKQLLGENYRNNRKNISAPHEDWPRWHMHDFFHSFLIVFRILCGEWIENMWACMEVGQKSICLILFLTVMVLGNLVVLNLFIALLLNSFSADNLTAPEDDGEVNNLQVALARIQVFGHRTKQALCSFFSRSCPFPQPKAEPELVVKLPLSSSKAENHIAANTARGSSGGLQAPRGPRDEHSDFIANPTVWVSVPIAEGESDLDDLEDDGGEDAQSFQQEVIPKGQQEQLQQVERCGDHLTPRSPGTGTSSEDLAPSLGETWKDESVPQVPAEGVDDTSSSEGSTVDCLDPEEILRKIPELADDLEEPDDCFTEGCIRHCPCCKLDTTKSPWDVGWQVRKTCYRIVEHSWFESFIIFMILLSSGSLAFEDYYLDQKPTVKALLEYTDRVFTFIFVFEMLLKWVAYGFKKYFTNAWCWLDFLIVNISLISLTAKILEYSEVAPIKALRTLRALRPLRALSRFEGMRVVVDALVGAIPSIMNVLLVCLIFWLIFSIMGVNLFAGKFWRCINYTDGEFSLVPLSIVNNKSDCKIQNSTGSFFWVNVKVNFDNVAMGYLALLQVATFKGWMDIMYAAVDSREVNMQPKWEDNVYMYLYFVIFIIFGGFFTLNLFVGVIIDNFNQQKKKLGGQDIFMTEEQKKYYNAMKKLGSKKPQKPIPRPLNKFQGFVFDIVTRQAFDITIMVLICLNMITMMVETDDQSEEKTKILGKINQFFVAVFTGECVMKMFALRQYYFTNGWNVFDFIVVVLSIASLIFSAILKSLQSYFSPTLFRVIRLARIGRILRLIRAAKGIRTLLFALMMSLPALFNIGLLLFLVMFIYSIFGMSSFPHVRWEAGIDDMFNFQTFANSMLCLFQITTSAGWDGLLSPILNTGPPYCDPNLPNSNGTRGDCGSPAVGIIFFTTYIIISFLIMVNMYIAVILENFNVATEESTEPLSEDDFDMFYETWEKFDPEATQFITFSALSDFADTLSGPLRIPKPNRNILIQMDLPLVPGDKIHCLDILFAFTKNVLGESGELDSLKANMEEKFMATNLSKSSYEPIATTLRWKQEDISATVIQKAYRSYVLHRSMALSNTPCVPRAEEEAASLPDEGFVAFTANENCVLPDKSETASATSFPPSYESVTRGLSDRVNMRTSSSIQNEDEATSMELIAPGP
Assay: Whole-cell patch clamp blocking activity against NaV1.8 channel current
Type: cell-based
Details: against NaV1.8 at 100 nM, CHO cell line stably expressing Nav1.8, patch clamp
parameter: Blocking rate (%) @100 nM
Kindly answer with a numeric value in %, unit omitted.

What Blocking rate (%) @100 nM value was documented for this compound, O=C(Nc1ccc[n+](O)c1)c1c(Oc2ccc(OC(F)(F)F)cc2Cl)ccc(C(F)(F)F)c1F ? 94.99

Would you kindly share the measured Blocking rate (%) @100 nM for O=C(Nc1ccc[n+](O)c1)c1c(Oc2ccc(OCC(F)(F)F)cc2)ccc(C(F)(F)F)c1F ? 85.77

Given the compound O=C(Nc1ccc[n+]([O-])c1)c1c(Oc2ccc(OCC(F)(F)F)cc2)ccc(Br)c1Cl , what is its reported Blocking rate (%) @100 nM? 88.88

Which Blocking rate (%) @100 nM value is on record for Cc1cc(F)ccc1Oc1cc(C(F)(F)F)c(Cl)cc1C(=O)Nc1ccc[n+]([O-])c1 ? 92.47

Which Blocking rate (%) @100 nM value belongs to O=C(Nc1ccc[n+](O)c1)c1c(Oc2ccc(OC(F)(F)F)c(F)c2)cc(Cl)c(Cl)c1F ? 98.02

Look up Blocking rate (%) @100 nM: O=C(Nc1ccc[n+]([O-])c1)c1c(Oc2ccc(OC(F)(F)F)cc2)ccc(C(F)(F)C(F)(F)F)c1F 96.02

Any idea what its Blocking rate (%) @100 nM is? The compound is O=C(Nc1cc[n+]([O-])c(Cl)c1)c1c(Oc2ccc(OC(F)(F)F)cc2)ccc(C(F)(F)F)c1F 76.10

For the compound O=C(Nc1cc[n+]([O-])cc1)c1c(Oc2ccc(OC(F)(F)F)cc2)cnc(C(F)(F)F)c1Cl , what Blocking rate (%) @100 nM is on record? 82.71

So what does the record say about Blocking rate (%) @100 nM for O=C(Nc1ccc[n+]([O-])c1)c1c(Oc2ccc(OC(F)F)cc2)ccc(C(F)(F)F)c1F ? 85.08

I have this compound here, O=C(Nc1cc[n+]([O-])nc1)c1c(Oc2ccc(OC(F)(F)F)c(F)c2)cnc(C(F)(F)F)c1F , and I need its recorded Blocking rate (%) @100 nM. 84.98

Which measured Blocking rate (%) @100 nM value corresponds to O=C(Nc1ccn[n+]([O-])c1)c1c(Oc2ccc(OC(F)(F)F)cc2)ccc(C(F)(F)F)c1F ? 78.46

Any idea what its Blocking rate (%) @100 nM is? The compound is O=C(Nc1ccc[n+]([O-])c1)c1c(Oc2ccc(OC(F)(F)F)cc2)cc(C(F)(F)F)c(Cl)c1F 99.15

Using the record for O=C(Nc1ccc[n+]([O-])c1)c1c(Oc2ccc(OC(F)(F)F)cc2F)ccc(C(F)(F)F)c1F , report its Blocking rate (%) @100 nM. 80.75

// lookup Blocking rate (%) @100 nM for O=C(Nc1ccc[n+](O)c1)c1c(F)cc(OC(F)(F)F)cc1Oc1ccc(OC(F)(F)F)cc1 87.14

Tell me the measured Blocking rate (%) @100 nM of O=C(Nc1cc[n+]([O-])nc1)c1c(Oc2ccc(OC(F)(F)F)cc2)cnc(C(F)(F)F)c1Cl , please. 93.18

// query Blocking rate (%) @100 nM value for entry O=C(Nc1ccc[n+]([O-])c1)c1c(Oc2ccc(OCC(F)(F)F)cc2)cc(Cl)c(Cl)c1F 98.47

Can you share its Blocking rate (%) @100 nM? I mean this compound: O=C(Nc1ccc[n+](O)c1)c1c(Oc2ccc(OC(F)(F)F)c(F)c2)cnc(C(F)(F)F)c1F 89.79

Look at this compound and give its reported Blocking rate (%) @100 nM. O=C(Nc1ccn[n+]([O-])c1)c1cc(Cl)c(Cl)cc1Oc1ccc(OC(F)(F)F)cc1 87.40

Form field: reported Blocking rate (%) @100 nM of COc1c(Cl)c(C(F)(F)F)cc(Oc2ccc(F)cc2C)c1C(=O)Nc1ccc[n+]([O-])c1 98.42

Consider the compound shown here: O=C(Nc1ccc[n+]([O-])c1)c1cc(C(F)(F)F)c(C2CC2)cc1Oc1ccc(OC(F)(F)F)cc1 What is its recorded Blocking rate (%) @100 nM? 86.65

// Blocking rate (%) @100 nM lookup, key: Cc1cc(Oc2ccc(OC(F)(F)F)cc2)c(C(=O)Nc2ccc[n+]([O-])c2)cc1Cl 85.44

Requested field: Blocking rate (%) @100 nM. Item: O=C(Nc1ccc[n+]([O-])c1)c1cc(Cl)c(C2CC2)cc1Oc1ccc(OC(F)(F)F)cc1 93.84

Consider the compound Cc1cc(Oc2ccc(OC(F)(F)F)cc2)c(C(=O)Nc2ccc[n+]([O-])c2)cc1C(F)(F)F and give its measured Blocking rate (%) @100 nM. 89.50

Look up Blocking rate (%) @100 nM for this compound: Cc1cc(F)ccc1Oc1cc(C(F)(F)F)c(Br)cc1C(=O)Nc1ccc[n+]([O-])c1 95.60

Item under review: COc1cc(Oc2ccc(OC(F)(F)F)cc2)c(C(=O)Nc2ccc[n+]([O-])c2)c(F)c1C(F)(F)F . Reported Blocking rate (%) @100 nM? 96.55
